Where these numbers come from: ChEMBL document CHEMBL5726728

- test-system: Cannabinoid receptor 2 (Homo sapiens)
- Sequence (P34972 whole entry): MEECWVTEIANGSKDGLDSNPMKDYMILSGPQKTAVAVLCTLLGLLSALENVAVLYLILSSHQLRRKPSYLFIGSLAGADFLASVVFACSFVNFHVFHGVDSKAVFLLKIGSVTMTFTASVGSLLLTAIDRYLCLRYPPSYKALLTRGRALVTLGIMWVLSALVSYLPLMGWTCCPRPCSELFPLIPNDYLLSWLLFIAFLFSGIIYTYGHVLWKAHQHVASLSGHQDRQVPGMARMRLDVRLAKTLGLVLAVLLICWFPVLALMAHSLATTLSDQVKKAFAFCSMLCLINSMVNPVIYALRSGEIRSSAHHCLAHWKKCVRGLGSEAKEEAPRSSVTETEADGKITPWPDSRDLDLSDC
- protocol-summary: As used herein, the term T-type calcium channel blocker refers to a compound that can modulate, in particular inhibit or reduce activation of T-type calcium channels. […] The term about refers to ±20%, typically ±10%, and often ±5% of the numeric value.
pKi: −log10 of the molar value.

- smiles-string: "CCCCCn1c2ccccc2c2cc(C(=O)N3CCN(CC(=O)NC(C)(C)C)CC3)ccc21"
  pKi: 5.71

###

- test-system: Cannabinoid receptor 1 (Rattus norvegicus)
- Sequence (P20272 whole entry): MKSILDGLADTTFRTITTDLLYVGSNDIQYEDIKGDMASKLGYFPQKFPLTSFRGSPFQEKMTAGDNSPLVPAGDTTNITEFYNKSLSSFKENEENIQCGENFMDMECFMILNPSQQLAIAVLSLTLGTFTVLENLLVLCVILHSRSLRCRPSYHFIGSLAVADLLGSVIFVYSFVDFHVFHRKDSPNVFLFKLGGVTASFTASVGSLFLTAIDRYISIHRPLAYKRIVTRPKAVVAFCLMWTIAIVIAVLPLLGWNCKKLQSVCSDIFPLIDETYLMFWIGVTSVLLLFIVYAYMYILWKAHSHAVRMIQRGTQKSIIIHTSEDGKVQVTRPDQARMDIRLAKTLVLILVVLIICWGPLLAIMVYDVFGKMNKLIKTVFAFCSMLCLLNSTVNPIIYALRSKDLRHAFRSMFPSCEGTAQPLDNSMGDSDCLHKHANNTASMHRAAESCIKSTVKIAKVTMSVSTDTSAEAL
- protocol-summary: As used herein, the term T-type calcium channel blocker refers to a compound that can modulate, in particular inhibit or reduce activation of T-type calcium channels. […] The term about refers to ±20%, typically ±10%, and often ±5% of the numeric value.
pKi: −log10 of the molar value.

- smiles-string: "CCCCCn1c2ccccc2c2cc(C(=O)N3CCN(CC(=O)NC(C)(C)C)CC3)ccc21"
  test-system: "Cannabinoid receptor 1 (Rattus norvegicus)"
  pKi: 7.82
